Every entry's value here was drawn from ChEMBL document CHEMBL1782044.

# System: Saccharomyces cerevisiae
# assay method text: Growth stimulation in Saccharomyces cerevisiae CG379 transformed with empty vector at 5 to 100 uM after 2 days
# Assay type: organism-based
# measurement conditions: in vivo, 48 h
measured metric: Activity (%)

I = CC(C)[C@H](NC(=O)OCC1c2ccccc2-c2ccccc21)C(=O)N[C@H](/C=C/S(=O)(=O)c1ccccc1)CC(=O)O
II = CC[C@H](C)[C@H](NC(=O)OCc1ccccc1)C(=O)N[C@H](/C=C/S(=O)(=O)c1ccccc1)CC(=O)O
III = O=C(O)C[C@@H](/C=C/S(=O)(=O)c1ccccc1)NC(=O)OCC1c2ccccc2-c2ccccc21
IV = CC(C)[C@H](NC(=O)OCc1ccccc1)C(=O)N[C@H](/C=C/S(C)(=O)=O)CC(=O)O
Arrange the 4 compounds by rising Activity, starting with the smallest. Use the labels to give the requested order.
IV, I, II, III
